Target: T1, huCD3e-mFc (human, UniProt P07766 23-126)
T1 construct: not shown: mFc, not described
T1 sequence (P07766 23-126): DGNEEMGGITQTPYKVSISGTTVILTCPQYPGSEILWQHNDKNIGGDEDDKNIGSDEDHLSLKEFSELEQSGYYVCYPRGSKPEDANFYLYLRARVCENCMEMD
Test: Pool 3 screen
pKd: −log10 of the molar value.
Listing: pKd of selected binders
quantity.measured: pKd

>>> recorded_measurement("AC3798 (CD3.294) (scFv, V domains shown, Pool 3 format (remarks)) VH: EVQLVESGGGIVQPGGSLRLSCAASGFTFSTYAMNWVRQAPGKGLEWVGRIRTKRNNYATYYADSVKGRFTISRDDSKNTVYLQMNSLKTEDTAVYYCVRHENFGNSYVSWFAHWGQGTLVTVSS VL: ELVVTQEPSLTVSPGGTVTLTCRSSNGAVTSSNYANWVQQKPGQAPRGLIGGTNKRAPGTPARFSGSGLGGKAALTLSGVQPEDEAVYYCALWYPNLWVFGGGTKLTVL")
8.52
>>> recorded_measurement("AC3857 (CD3.353) (scFv, V domains shown, Pool 3 format (remarks)) VH: EVQLVESGGGIVQPGGSLRLSCAASGFTFSTYAMNWVRQAPGKGLEWVGRIRTKTNNYATYYADSVKGRFTISRDDSKNTVYLQMNSLKTEDTAVYYCVRHENFGNSYVSWFAHWGQGTLVTVSS VL: ELVVTQEPSLTVSPGGTVTLTCRSSNGAVTSSNYANWVQQKPGQAPRGLIGGTNKRAPGTPARFSGSLLGGKAGLTLSGVQPEDEAVYYCALWYPNLWVFGGGTKLTVL")
7.91
>>> recorded_measurement("AC3814 (CD3.310) (scFv, V domains shown, Pool 3 format (remarks)) VH: EVQLVESGGGIVQPGGSLRLSCAASGFTFSTYAMNWVRQAPGKGLEWVGRIRTKRNDYATYYADSVKGRFTISRDDSKNTLYLQMNSLKTEDTAVYYCVRHENFGNSYVSWFAHWGQGTLVTVSS VL: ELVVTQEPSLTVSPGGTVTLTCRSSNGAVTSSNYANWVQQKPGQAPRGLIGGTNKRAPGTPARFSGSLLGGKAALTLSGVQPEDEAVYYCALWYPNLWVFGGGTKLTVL")
8.39

Origin of values: patent US20260167728A1
